Tested on: Botrytis cinerea
experiment-summary: Antifungal activity against Botrytis cinerea after 48 hrs by serial dilution method
Type: functional
quantity-name: MIC (µg/mL)
// note: answer is a bare numeric in µg/mL

The molecule CCC(C)C(=O)C(O)Cc1c[nH]c2ccccc12 (centres undefined) , when measured on Botrytis cinerea, yielded MIC of 12

Query CC(C)C(=O)C(O)Cc1c[nH]c2ccccc12 (centres undefined) on Botrytis cinerea; MIC returned: 12

----------
Reported MIC values follow for various compounds
System: Aspergillus flavus
experiment-summary: Antifungal activity against Aspergillus flavus ATCC 24133 after 24 hrs by serial dilution method
Assay type: functional
stated-conditions: ATCC 24133, 24 h

Input CCC(C)C(=O)C(Cc1c[nH]c2ccccc12)OC(C)=O (centres undefined) . Output MIC: > 100 µg/mL

Form: compound = CC(C)C(=O)C(O)Cc1c[nH]c2ccccc12 (centres undefined) ; MIC = > 100 µg/mL

Sample CCC(C)C(=O)C(O)Cc1c[nH]c2ccccc12 (centres undefined) ; MIC observed: > 100 µg/mL

Record CC(=O)OC(Cc1c[nH]c2ccccc12)C(=O)C(C)C (centres undefined) , field MIC: > 100 µg/mL

----------
Items are presented alongside their recorded MIC.
Tested on: Cryptococcus neoformans
experiment-summary: Antifungal activity against Cryptococcus neoformans ATCC 14117 after 24 hrs by serial dilution method
Format: functional
stated-conditions: ATCC 14117, 24 h
Only the number, expressed in µg/mL, is required.

CCC(C)C(=O)C(Cc1c[nH]c2ccccc12)OC(C)=O (centres undefined); 50

The recorded MIC for entry CC(=O)OC(Cc1c[nH]c2ccccc12)C(=O)C(C)C (centres undefined) equals 25
